- assayed.system: HLA-B*46:01
- assay.name: IEDB peptide-MHC binding, purified MHC/competitive/fluorescence; filed as Kd, often an IC50 or EC50 that approximates it; bounds were set here for any values at or beyond the usual limits of such assays
- condition.summary: source organism: Vibrio cholerae 2740-80
measurement.kind: Kd

- YEPEMQAQV: ≥ 20 µM

* * *

- assayed.system: HLA-A*66:01
- assay.name: IEDB peptide-MHC binding, purified MHC/competitive/fluorescence; filed as Kd, often an IC50 or EC50 that approximates it; bounds were set here for any values at or beyond the usual limits of such assays
- condition.summary: source organism: Burkholderia mallei SAVP1
measurement.kind: Kd

* NVMDPMHGA | ≥ 5 µM
